- protocol_details: Cytotoxicity against HK-2 cells assessed as inhibition of cell growth incubated for 72 hrs by MTT assay
- Format: toxicity, cell-based
- test_parameters: human
measure: IC50 at 72 h (nM)
Answers are plain numbers, in nM.

structure_as_smiles | measure | readout_unit | observed_value
COc1ccc(C(=O)Nc2cc(-c3ccnc(N4CCC(O)CC4)c3)ccn2)cc1 | IC50 at 72 h | nM | 481

## Task Suppose we examine the compound N[C@H]1CC[C@H](Nc2cc(-c3cccc(NCc4cccc(F)c4)n3)c(Cl)cn2)CC1 ; what IC50 at 72 h value has been reported?
## Result 187

----------
- Tested on: MDA-MB-231
- protocol_details: cells
- test_parameters: Homo sapiens, MDA-MB-231, 72 h
measure: IC50

Example entries and their recorded answers appear below.
structure_as_smiles | observed_value
COc1ccc(CCC(=O)Nc2cc(-c3ccnc(N4CCC(O)CC4)c3)ccn2)cc1 | > 10 µM
Cc1ccccc1C(=O)Nc1cc(-c2ccnc(N3CCC(O)CC3)c2)ccn1 | > 10 µM

Please examine the following record next.
## Task Suppose we examine the compound CC1CCN(c2cc(-c3ccnc(NC(=O)c4ccc(F)cc4)c3)ccn2)CC1 ; what IC50 value has been reported?
## Result > 10 µM
